# koff listing for each entry below
# measured.on: Recombinant human his-tagged IGF 1R extracellular domain protein (human) (UniProt P08069)
# assay.details: SPR, captured antibody, pH 7.4

binder | koff, s⁻¹
VRDN-03043 (antibody, V domains shown) VH: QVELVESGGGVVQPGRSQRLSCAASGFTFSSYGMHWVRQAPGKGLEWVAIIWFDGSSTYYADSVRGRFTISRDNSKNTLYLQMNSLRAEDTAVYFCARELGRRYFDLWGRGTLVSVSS VL: EIVLTQSPATLSLSPGERATLSCRASQSHSSYLAWYQQKPGQAPRLLIYDASKRATGIPARFSGSGSGTDFTLTISSLEPEDFAVYYCQQRSKWPPWTFGQGTKVESK | 0.0111
VRDN-03122 (antibody, V domains shown) VH: EVQLVESGGGVVQPGRSLRLSCAASGFTFSSYSMHWVRQAPGKGLEWVAVIWYDGSSKYYADSVKSRFTISRDNSKNTLYLQMNSLRAEDTAVYYCARELGRRYFDIWGQGTLVTVSS VL: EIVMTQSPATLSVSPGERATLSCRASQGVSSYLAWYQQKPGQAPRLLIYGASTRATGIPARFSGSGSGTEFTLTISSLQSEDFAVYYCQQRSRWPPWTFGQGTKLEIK | 0.000455
VRDN-03131 (antibody, V domains shown) VH: EVQLVESGGGVVQPGRSLRLSCAASGFTFSSYSMHWVRQAPGKGLEWVAIIWFDGSEKYYVDSVKSRFTISRDNSKNTLYLQMNSLRAEDTAVYYCARELGRRYFDIWGQGTLVTVSS VL: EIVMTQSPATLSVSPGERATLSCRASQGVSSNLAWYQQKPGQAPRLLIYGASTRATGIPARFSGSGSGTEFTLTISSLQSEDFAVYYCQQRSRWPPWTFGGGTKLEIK | 0.00141
